Hello, the source for this data is patent US20230218644A1, in case you need it.

# measured.on: MERS-CoV 3CLpro (Middle East respiratory syndrome-related coronavirus, UniProt K9N7C7)
# Sequence (K9N7C7 3248-3553 limits assumed): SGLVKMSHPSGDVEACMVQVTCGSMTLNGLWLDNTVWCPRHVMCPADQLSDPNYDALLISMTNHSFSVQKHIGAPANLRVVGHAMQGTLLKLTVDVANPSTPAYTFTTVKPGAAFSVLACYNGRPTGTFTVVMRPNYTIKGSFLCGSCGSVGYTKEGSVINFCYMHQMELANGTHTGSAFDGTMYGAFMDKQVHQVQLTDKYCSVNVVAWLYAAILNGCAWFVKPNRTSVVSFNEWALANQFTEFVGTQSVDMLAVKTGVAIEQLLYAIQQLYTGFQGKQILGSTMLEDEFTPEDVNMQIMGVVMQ
value.kind: IC50 (µM)

molecule="COc1cccc(OCCCN)c1-c1cc(Nc2cnc(C#N)cn2)n[nH]1 [PREXASERTIB diHCl]" value_kind=IC50 assay_value=12.4
molecule="CN(C)[C@@H]1C(O)=C(C(N)=O)C(=O)[C@@]2(O)C(O)=C3C(=O)c4c(O)c(NC(=O)CN5CCCC5)cc(F)c4C[C@H]3C[C@@H]12 [ERAVACYCLINE diHcl]" value_kind=IC50 assay_value=16.4
molecule="O=C(/C=C/c1ccc(O)c(O)c1)OC1CC(OC(=O)/C=C/c2ccc(O)c(O)c2)(C(=O)O)CC(O)C1O (stereo not drawn)" value_kind=IC50 assay_value=16.7
